system: 30S ribosomal subunit (mRNA-programmed, activated; ribonucleoprotein); assay: filter; conditions: s2U at tRNA position 34; poly(A)-programmed; also bound poly(AG)-programmed 30S; CMN buffer 20 mM MgCl2, pH 7.2
pKd: −log10 of the molar value.

sequenceChain | targetEntity | pKd
UCAGACUUUUAAUCUGA [ASLLys3(SUU), s2U34 anticodon stem-loop] | 30S ribosomal subunit (mRNA-programmed, activated; ribonucleoprotein) | 6.75
